Known Emax of a selection of compounds
Target: SIRT1 (Homo sapiens)
Sequence (Q96EB6 whole entry): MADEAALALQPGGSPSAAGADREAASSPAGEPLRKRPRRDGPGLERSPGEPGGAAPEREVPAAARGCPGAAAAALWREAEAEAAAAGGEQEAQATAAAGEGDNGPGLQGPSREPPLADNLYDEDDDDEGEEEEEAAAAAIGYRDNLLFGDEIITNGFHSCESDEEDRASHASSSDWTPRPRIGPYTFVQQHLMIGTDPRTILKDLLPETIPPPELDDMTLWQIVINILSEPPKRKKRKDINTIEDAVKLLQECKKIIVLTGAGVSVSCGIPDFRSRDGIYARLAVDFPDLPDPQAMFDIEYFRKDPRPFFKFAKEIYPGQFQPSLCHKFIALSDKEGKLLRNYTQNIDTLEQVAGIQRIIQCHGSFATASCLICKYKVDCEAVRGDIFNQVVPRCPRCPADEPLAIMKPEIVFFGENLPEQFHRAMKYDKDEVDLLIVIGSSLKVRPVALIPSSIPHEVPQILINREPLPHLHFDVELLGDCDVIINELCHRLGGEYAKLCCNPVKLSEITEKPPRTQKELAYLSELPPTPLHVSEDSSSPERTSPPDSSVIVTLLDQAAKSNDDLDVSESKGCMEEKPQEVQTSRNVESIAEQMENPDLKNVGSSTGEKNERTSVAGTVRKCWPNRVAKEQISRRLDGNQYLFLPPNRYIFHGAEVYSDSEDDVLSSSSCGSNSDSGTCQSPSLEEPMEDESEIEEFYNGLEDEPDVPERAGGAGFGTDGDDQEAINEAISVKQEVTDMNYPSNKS
Assay: Trp mass spectrometry assay of SIRT1 activity
Format: biochemical
Settings: Trp assay; percent maximum fold activation; read-out: Trp % Fold Act
reportedProperty: Emax

1. COCCOc1cc(NC(=O)c2cnc3ccc(-c4ccccc4C(F)(F)F)nn23)ncn1 | < 350%
2. CN(C)[C@H]1CCN(c2ccc3ncc(C(=O)Nc4ccncc4F)n3n2)C1 | < 350%
3. Cc1ccc(NC(=O)c2c(C)nc3c(OC[C@H](O)CO)cc(-c4ccccc4C(F)(F)F)nn23)cn1 | ≥ 350%
4. Cc1nc(C(=O)Nc2cnn3ccc(-c4ccccc4OC(F)(F)F)nc23)cs1 | < 350%
5. CN(C)c1cccc(NC(=O)c2cnc3ccc(-c4cccc(OC[C@H](O)CO)c4)nn23)n1 | ≥ 350%
6. O=C(Nc1ccccn1)c1cnc2ccc(N3CC(F)(F)C3)nn12 | < 350%
7. O=C(Nc1cccnc1)c1cnn2ccc(-c3ccccc3C(F)(F)F)nc12 | ≥ 350%
8. O=C(Nc1ccncc1F)c1cnc2ccc(N3CCCC3)nn12 | < 350%
